Target: T1, human CD48 (on primary human peripheral blood mononuclear cells) (human, UniProt P09326 27-220)
T1 sequence: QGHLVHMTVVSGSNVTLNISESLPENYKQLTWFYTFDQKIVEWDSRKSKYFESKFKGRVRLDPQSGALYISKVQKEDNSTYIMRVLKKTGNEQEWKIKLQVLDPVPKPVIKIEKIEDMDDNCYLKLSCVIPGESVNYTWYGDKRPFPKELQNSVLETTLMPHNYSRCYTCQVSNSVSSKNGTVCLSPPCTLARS
Test: cell-based or functional assay
Quick reference: Inhibition of IFN-gamma Release IC50; Donor 1 of the listed items.

Illustrative cases are given below, each with its answer.
binder | result
H2M1710N (antibody, mouse IgG2, V domains shown, Human variable domains, mouse IgG2 Fc (H2M)) VH: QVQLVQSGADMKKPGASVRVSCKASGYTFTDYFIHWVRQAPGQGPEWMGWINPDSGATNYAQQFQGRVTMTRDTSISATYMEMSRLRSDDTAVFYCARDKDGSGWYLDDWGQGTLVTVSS VL: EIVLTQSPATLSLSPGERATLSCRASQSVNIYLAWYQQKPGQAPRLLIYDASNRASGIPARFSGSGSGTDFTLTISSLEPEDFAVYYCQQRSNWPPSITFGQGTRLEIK | 7.8e-10 Molar
H2M1713N (antibody, mouse IgG2, V domains shown, Human variable domains, mouse IgG2 Fc (H2M)) VH: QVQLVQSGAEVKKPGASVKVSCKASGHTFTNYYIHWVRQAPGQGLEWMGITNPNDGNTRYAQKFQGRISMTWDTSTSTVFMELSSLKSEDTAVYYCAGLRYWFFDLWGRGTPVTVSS VL: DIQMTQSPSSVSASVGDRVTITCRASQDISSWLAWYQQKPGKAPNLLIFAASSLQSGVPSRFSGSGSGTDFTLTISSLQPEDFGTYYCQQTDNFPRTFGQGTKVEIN | 2.1e-11 Molar
H2M1811N (antibody, mouse IgG2, V domains shown, Human variable domains, mouse IgG2 Fc (H2M)) VH: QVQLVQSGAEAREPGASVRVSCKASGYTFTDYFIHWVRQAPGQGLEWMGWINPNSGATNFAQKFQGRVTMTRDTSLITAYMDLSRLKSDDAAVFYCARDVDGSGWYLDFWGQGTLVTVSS VL: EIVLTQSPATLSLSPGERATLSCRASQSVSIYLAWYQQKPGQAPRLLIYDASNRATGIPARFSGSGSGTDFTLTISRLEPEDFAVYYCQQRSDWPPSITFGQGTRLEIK | 9.1e-11 Molar

[in] Returns the measured Inhibition of IFN-gamma Release IC50; Donor 1 for the input binder. Input: H2M1709N (antibody, mouse IgG2, V domains shown, Human variable domains, mouse IgG2 Fc (H2M)) VH: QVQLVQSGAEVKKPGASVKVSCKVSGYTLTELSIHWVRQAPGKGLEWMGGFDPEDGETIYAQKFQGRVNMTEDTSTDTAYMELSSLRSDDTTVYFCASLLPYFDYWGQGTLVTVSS VL: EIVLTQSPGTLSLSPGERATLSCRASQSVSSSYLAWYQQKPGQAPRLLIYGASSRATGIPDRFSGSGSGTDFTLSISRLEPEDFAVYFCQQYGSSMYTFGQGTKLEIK
[out] 4.8e-11 Molar

[in] Tell me the measured Inhibition of IFN-gamma Release IC50; Donor 1 of H2M1763N (antibody, mouse IgG2, V domains shown, Human variable domains, mouse IgG2 Fc (H2M)) VH: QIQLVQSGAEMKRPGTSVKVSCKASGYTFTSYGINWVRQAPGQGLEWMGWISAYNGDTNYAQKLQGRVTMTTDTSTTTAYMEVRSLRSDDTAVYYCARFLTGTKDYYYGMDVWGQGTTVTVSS VL: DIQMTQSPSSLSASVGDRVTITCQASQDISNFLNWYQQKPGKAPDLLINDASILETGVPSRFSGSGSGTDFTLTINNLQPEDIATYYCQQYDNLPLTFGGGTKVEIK , please.
[out] 4.9e-11 Molar

[in] Reported Inhibition of IFN-gamma Release IC50; Donor 1, binder H2M1707N (antibody, V domains shown, Human variable domains, mouse IgG2 Fc (H2M)) VH: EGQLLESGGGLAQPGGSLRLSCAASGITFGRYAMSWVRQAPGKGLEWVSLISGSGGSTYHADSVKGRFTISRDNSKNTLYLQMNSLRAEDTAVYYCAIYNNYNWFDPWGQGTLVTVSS VL: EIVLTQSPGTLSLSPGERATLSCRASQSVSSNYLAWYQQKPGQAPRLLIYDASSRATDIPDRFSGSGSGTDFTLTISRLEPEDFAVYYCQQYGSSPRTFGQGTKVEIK : ____
[out] 4.9e-11 Molar

[in] Can you look up the measured Inhibition of IFN-gamma Release IC50; Donor 1 of H2M1712N (antibody, mouse IgG2, V domains shown, Human variable domains, mouse IgG2 Fc (H2M)) VH: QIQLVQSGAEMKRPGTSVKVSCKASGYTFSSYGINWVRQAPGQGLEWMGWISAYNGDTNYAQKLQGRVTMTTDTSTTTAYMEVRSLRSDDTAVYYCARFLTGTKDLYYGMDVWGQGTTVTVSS VL: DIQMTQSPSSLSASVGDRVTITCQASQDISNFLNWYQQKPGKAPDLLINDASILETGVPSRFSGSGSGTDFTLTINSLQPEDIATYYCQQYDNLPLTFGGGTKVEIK for me?
[out] 2e-11 Molar
